test system: human erythrocytes; assay: Hemolysis assay; settings: human erythrocytes 0.25% (v/v), Tris buffer pH 7.6/DMSO, 37°C, 20 min, absorbance 540 nm, relative to Triton X-100; up to 100 µM peptide
PARAMETER: HC10, concentration that induced 10% hemolysis (µM)
Entry rule: numbers only, all in µM.

Form field: reported HC10, concentration that induced 10% hemolysis of CC[C@H](C)[C@H](NC(=O)[C@H](CCCCN)NC(=O)[C@H](CCCCN)NC(=O)[C@H](Cc1ccccc1)NC(=O)[C@H](CC(C)C)NC(=O)[C@H](CCCCN)NC(=O)[C@@H](N)CCCCN)C(=O)N[C@@H](CC(C)C)C(=O)N[C@@H](CCCCN)C(=O)N[C@@H](Cc1ccc(O)cc1)C(=O)N[C@@H](CC(C)C)C(N)=O
45

Where do the numbers come from? From paper PMC8107365.
